Molecular target: human PTH1 receptor (Homo sapiens, UniProt Q03431)
Sequence (Q03431 27-593): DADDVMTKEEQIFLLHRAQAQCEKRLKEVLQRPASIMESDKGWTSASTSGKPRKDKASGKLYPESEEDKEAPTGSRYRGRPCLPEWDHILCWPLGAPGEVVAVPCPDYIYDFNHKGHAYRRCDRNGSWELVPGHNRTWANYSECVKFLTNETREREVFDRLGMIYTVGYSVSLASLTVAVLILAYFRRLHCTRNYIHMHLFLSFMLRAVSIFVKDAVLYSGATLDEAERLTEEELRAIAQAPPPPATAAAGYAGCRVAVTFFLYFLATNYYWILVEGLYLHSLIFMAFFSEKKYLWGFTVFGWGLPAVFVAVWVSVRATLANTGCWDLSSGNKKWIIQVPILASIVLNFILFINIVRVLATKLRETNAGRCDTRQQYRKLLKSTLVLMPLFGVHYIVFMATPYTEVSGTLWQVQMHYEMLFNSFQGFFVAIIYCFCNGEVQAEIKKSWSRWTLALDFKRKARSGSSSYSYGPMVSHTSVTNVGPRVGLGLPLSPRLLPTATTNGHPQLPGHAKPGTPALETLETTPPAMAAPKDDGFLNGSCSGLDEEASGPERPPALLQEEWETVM
Experiment: In vitro cAMP signal activity in HKRK-B7 cells (LLC-PK1 cells overexpressing the human PTH1 receptor)
Type: cell-based
Details: HKRK-B7 cells; compound at 1×10^−3 M; cAMP produced as percentage of that produced by hPTH(1-34) at 100 nM
cAMP production activity (%) values, listed per item
Note: unit % is implicit; provide only the numeric part.

O=C1NC(CCc2cccc3ccccc23)=NC12CCN(S(=O)(=O)c1cccc(Cl)c1)CC2 [Compound 34]: 16

Qu. For Cc1cc(C(=O)N2CCC(C)(O)CC2)cc(C)c1/C=C/S(=O)(=O)N1CCC2(CC1)N=C(c1ccc(OCCCC(F)(F)F)c(C(F)(F)F)c1)NC2=O [Compound 1204] , what is its reported cAMP production activity (%)?
Ans. 83

Qu. For Cc1cc(NC[C@H](O)CO)ccc1CCS(=O)(=O)N1CCC2(CC1)N=C(c1cccc(Cl)c1)NC2=O [Compound 157] , what is its reported cAMP production activity (%)?
Ans. 70

Qu. For Cc1cc(C(=O)N2CCC(C)(O)CC2)cc(C)c1/C=C/S(=O)(=O)N1CCC2(CC1)N=C(c1ccc3c(c1)OC(F)(F)O3)NC2=O [Compound 1163] , what is its reported cAMP production activity (%)?
Ans. 101

Qu. For Cc1cc(N(CCO)C(=O)N(C)CCO)cc(C)c1/C=C/S(=O)(=O)N1CCC2(CC1)N=C(c1cccc(OC(F)(F)F)c1)NC2=O [Compound 533] , what is its reported cAMP production activity (%)?
Ans. 69

Qu. For CCCCCCCCCC1=NC2(CCN(S(=O)(=O)CCc3ccc(C(=O)N4CCCC4)cc3C)CC2)C(=O)N1 [Compound 977] , what is its reported cAMP production activity (%)?
Ans. 80

Qu. For O=C1NC(C2CCCCC2)=NC12CCN(S(=O)(=O)c1cc3ccccc3s1)CC2 [Compound 54] , what is its reported cAMP production activity (%)?
Ans. 35

Qu. For Cc1cc2ccc1CCS(=O)(=O)N1CCC3(CC1)N=C(NC3=O)c1cc(cc(C(F)(F)F)c1)OCCCCCCCCCCN(C)C2=O [Compound 1418] , what is its reported cAMP production activity (%)?
Ans. 36

Qu. For CN(C)C(=O)n1ccc2c(/C=C/S(=O)(=O)N3CCC4(CC3)N=C(C3CCCCC3)NC4=O)cccc21 [Compound 189] , what is its reported cAMP production activity (%)?
Ans. 54

Qu. For Cc1cc(N(C)C(N)=O)cc(C)c1C1CC1S(=O)(=O)N1CCC2(CC1)N=C(C1CCC(C)CC1)NC2=O (centres unmarked) [Compound 740] , what is its reported cAMP production activity (%)?
Ans. 123
